test system: A549 NSCLC; test: NCI tumour cell line growth inhibition, 48 h
readout.type: TGI

Known TGI results, listed for orientation:
- compound: "COc1cc2c(cc1OC)CC(=O)c1cc(OC)c(OC)cc1/C=C\\2"
  study.target: "A549 NSCLC"
  TGI: "> 12.5 µM"
- compound: "O=C(Cn1cc(F)c(=O)[nH]c1=O)C12CC3CC(CC(C3)C1)C2"
  study.target: "A549 NSCLC"
  TGI: "> 100 µM"

The value of TGI measured for the compound Nc1ccc(C(=O)NN2C(=O)C(Cl)C2c2cc(Br)ccc2O)cc1 (stereo not given) turned out to be > 100 µM

The value of TGI measured for the compound COc1ccc(C2C(=O)C(Cl)N2Nc2nc(C)cc(=O)[nH]2)cc1OC (stereo not given) turned out to be > 100 µM

The value of TGI measured for the compound CN1CCN(c2cc3c(cc2F)c(=O)c(C(=O)O)cn3C2CC2)CC1CC#N (stereo not given) turned out to be > 100 µM

###

tested on: HT29 colon; assay: NCI tumour cell line growth inhibition, 48 h
readout.type: TGI (µM)
Number in µM, nothing else.

- compound: "CCCc1c(O)c(=O)c2c(OC)cc(OC)c3c4c(OC)cc(OC)c5c(=O)c(O)c(CCC)c(c1c23)c54"
  study.target: "HT29 colon"
  readout.type: "TGI"
  data.value: 6.75

Now for the compound whose TGI we want.
I looked up C=CCN(N=O)C(=O)N(CCCC(NC(C)=O)C(=O)NCc1ccccc1)Cc1ccccc1 (stereo not given) and its TGI for HT29 colon was 82.4

###

system: SF-268 CNS; assay: NCI tumour cell line growth inhibition, 48 h; in the data active = GI50 below about 0.43 µM; inactive = the rest
Valid outcomes are listed here; reply with one: YES (active), NO (inactive)

- structure: "Cn1ccnc1C(=O)/C=C/c1ccc(CC(=O)Nc2ccc(S(F)(F)(F)(F)F)cc2)cc1"
  study.target: "SF-268 CNS"
  label.class: "NO"
- structure: "Cc1nc2sc(C(=O)Nc3cccc4ccccc34)c(N)c2cc1C(=O)/C=C/c1ccccc1"
  study.target: "SF-268 CNS"
  label.class: "NO"
- structure: "NC(=NC1CCCCCCC1)c1ccc(N2CCN(c3ccc(C(N)=NC4CCCCCCC4)cc3)CC2)cc1"
  study.target: "SF-268 CNS"
  label.class: "NO"
- structure: "O=C1c2ccc3c4c5ccc(c24)C(=O)N1CCCOCCCCOCCCNCc1ccc(cc1)CNCCCOCCCCOCCCN(C3=O)C5=O"
  study.target: "SF-268 CNS"
  label.class: "NO"

Inquiry: Look up the recorded call for "COc1ccn2c(C(C)=O)cc(C(=O)c3ccc4c(c3)Sc3ccccc3N4)c2c1" in this test.
Reply text: YES

###

Listed here are compounds together with their documented TGI.
system: UO-31 renal; assay: NCI tumour cell line growth inhibition, 48 h

Known TGI results, listed for orientation:
- compound: "CCOC(=O)C1=C(NNC(=O)Cc2ccccc2)CSC1=Nc1ccccc1"
  readout.type: "TGI"
  data.value: "> 100 µM"
- compound: "O=C(O)C(O)Cc1ccccn1 (configuration not stated)"
  readout.type: "TGI"
  data.value: "> 100 µM"
- compound: "CCn1c2ccccc2c2ccc3c(c21)C(=O)c1ccccc1C3=O"
  readout.type: "TGI"
  data.value: "> 100 µM"
- compound: "CCN1CCN(CC(=O)Nc2nc3ccc(NCc4ccc(Cl)cc4)cc3s2)CC1"
  readout.type: "TGI"
  data.value: "3.19 µM"
- compound: "CCOP(=O)(OCC)C(Nc1cccc([N+](=O)[O-])c1)c1ccccc1 (configuration not stated)"
  readout.type: "TGI"
  data.value: "> 100 µM"
- compound: "N#Cc1c(-c2ccc(Cl)cc2)c(C#N)c(=O)n(NS(=O)(=O)c2ccccc2)c1S"
  readout.type: "TGI"
  data.value: "45.3 µM"
- compound: "Cc1cc(OCc2nn(CN3CCN(C)CC3)c(=S)n2/N=C/c2ccc(-c3ccc(Cl)cc3Cl)o2)ccc1Cl"
  readout.type: "TGI"
  data.value: "> 100 µM"
- compound: "Cc1ccc(S(=O)(=O)NNC(=O)c2sc(-c3nc(C)c(C(=O)NNS(=O)(=O)c4ccc(C)cc4)s3)nc2C)cc1"
  readout.type: "TGI"
  data.value: "99.7 µM"
- compound: "C=C(C)[C@@H]1CC[C@]2(C(=O)NCCNCCNCCN)CC[C@]3(C)[C@H](CC[C@@H]4[C@@]5(C)CC[C@H](O)C(C)(C)[C@@H]5CC[C@]43C)[C@@H]12"
  readout.type: "TGI"
  data.value: "24.7 µM"
- compound: "COc1ccc(C(=O)COc2cccc(/C=C3\\CSc4ccccc4C3=O)c2)cc1"
  readout.type: "TGI"
  data.value: "3.46 µM"

I looked up "C=CC1=C[C@@H]2[C@@H]3O[C@]4(CC[C@H](O4)[C@@H](C)C[C@@H](O)C3=O)C[C@H](O)C3=NCC[C@@]32CC1" and its TGI for UO-31 renal was < 0.00333 µM

I looked up "O=Cc1cn(Cc2cccc(Cl)c2)c2ccccc12" and its TGI for UO-31 renal was 21.1 µM

I looked up C=C(C(=O)O)C1CCC(CC/C=C(\C)CC/C=C(\C)CCC=C(C)C)CO1 (configuration not stated) and its TGI for UO-31 renal was 30 µM

I looked up "FC(F)(F)C(C1=NC(C(F)(F)F)(C(F)(F)F)N=C(N2CCOCC2)O1)C(F)(F)F" and its TGI for UO-31 renal was > 100 µM

I looked up "COc1ccc(-c2cnnn2-c2cc(OC)c3c(c2)OCO3)cc1" and its TGI for UO-31 renal was > 100 µM

I looked up "c1ccc(-c2cs[s+]c2)cc1" and its TGI for UO-31 renal was > 100 µM

I looked up "Cc1cccc2c(=O)c3c(O)cc(O)cc3[nH]c12" and its TGI for UO-31 renal was > 10 µM
